# test.target: human ether-à-go-go-related gene (hERG) potassium channel (human);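 also: peak tail current of the secondary pulse compared with the same well before compound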
# Sequence (Q12809 whole entry, looked up): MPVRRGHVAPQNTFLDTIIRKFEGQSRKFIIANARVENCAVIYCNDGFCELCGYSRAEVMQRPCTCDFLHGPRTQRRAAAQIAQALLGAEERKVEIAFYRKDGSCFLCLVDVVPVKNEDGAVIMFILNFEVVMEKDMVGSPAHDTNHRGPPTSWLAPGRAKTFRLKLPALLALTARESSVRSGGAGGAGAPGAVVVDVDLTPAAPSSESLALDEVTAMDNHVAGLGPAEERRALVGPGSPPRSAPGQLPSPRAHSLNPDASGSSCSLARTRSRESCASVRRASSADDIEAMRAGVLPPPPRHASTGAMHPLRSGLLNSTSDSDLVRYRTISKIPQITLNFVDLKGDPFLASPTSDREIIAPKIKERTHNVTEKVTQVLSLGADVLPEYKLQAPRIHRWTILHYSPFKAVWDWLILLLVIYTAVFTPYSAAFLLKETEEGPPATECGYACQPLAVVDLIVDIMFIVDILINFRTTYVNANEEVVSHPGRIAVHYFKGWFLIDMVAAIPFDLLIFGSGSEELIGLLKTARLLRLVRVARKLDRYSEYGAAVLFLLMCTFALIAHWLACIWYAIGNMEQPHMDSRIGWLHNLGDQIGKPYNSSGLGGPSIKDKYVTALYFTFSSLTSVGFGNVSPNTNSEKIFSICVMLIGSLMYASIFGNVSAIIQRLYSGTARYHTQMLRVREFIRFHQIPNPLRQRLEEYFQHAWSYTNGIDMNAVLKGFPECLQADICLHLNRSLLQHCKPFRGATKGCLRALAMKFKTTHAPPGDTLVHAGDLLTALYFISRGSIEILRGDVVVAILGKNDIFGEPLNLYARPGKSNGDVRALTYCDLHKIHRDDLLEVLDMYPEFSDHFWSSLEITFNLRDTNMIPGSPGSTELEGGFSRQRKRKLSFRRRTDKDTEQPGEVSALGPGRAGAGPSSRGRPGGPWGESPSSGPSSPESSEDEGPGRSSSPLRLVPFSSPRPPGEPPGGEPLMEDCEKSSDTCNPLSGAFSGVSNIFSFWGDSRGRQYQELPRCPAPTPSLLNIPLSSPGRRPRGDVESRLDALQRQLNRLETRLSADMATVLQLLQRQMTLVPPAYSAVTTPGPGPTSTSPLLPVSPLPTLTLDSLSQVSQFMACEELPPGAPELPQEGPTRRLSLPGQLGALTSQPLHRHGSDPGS
# assay.protocol: primary screen, population patch clamp on CHO cells stably expressing hERG; higher = less effect of the substance
In all, about 310,000 compounds went through this assay and about 14,000 (4.5%) showed an effect of 50% or more. The effect is printed as a negative number. What follows is part of a selection rich in strong results, with near analogues and random picks from the rest.
Entries and their hERG current change (%, negative = inhibition) at 10uM values follow.
Give your result in % as a bare value.

| molecule | test.target | value.units | observed.result |
| --- | --- | --- | --- |
| Brc1ccc(-c2c(-c3ccsc3)sc3ccccc23)cn1 | human ether-à-go-go-related gene (hERG) potassium channel (human) | % | 14.1 |

// fetch human ether-à-go-go-related gene (hERG) potassium channel (human) hERG current change (%, negative = inhibition) at 10uM for COc1cc2ccccc2cc1C(=O)Nc1cccnc1
-9.84

Continue with COc1cc(C(=O)NCC2(N3CCCCC3)CCCCC2)ccc1OCC(=O)N1CCOCC1
-3.67

Moving on to the next molecule: CCOCCCNC(=S)N1C2CCC1CC(NC(=O)Nc1ccc(C(=O)OCC)cc1)C2 (centres unmarked)
13.7
